- Tested on: JEG-3
- procedure_summary: Primary qHTS to identify gynecologic anti-cancer compounds using libraries of approved drugs and bioactive compounds (AID 1345084); note: nearly all actives have a fitted effect of over 55% in size
- experimental_conditions: Gynecologic cancer cell panel viability, ATPlite luminescence, 48 h; series mostly up to 57.5 µM
Inconclusive results are not listed. Calls of active or inactive are those of the source. Calls come from the whole dose curve; as a rule, active = well fitted cell-killing curve with a large enough effect; inconclusive = small, poorly fitted or top-dose-only effect, or effect the other way; inactive = flat fitted curve, though single readings scatter.
outcome_measure: activity change, negative = cytotoxicity

CC1CC[C@]2(C(=O)O)CC[C@]3(C(=O)O)C(=CCC4[C@@]5(C)CC[C@H](O[C@@H]6O[C@H](CO)[C@@H](O)[C@H](O)[C@H]6O)C(C)(C)C5CC[C@]43C)C2C1C (stereo partly specified); inactive
Cc1ccc(C)c(OCCn2cc(C(=O)O)c3ccccc32)c1; inactive
CC1COC(Nc2ccc3ncnc(Nc4ccc(OCc5nccs5)c(Cl)c4)c3c2)=N1 (stereo unspecified); inactive
CC1(C)CC[C@]2(C(=O)O[C@@H]3O[C@H](CO)[C@@H](O)[C@H](O)[C@H]3O)CC[C@]3(C)C(=CCC4[C@@]5(C)C[C@@H](O)[C@H](O)C(C)(C)C5CC[C@]43C)C2[C@@H]1O (stereo partly specified); inactive

Which measured activity change, negative = cytotoxicity value corresponds to CNC(=S)NS(=O)(=O)c1cc(CCNC(=O)c2cc(Cl)ccc2OC)ccc1OC ? inactive

// activity change, negative = cytotoxicity lookup, key: CCc1cc(CN2CC(C(=O)O)C2)sc1-c1noc(-c2ccc(Oc3ccccc3)cc2)n1 inactive

Reported activity change, negative = cytotoxicity for CCn1cc(NC(=S)Nc2cc(Cl)ccc2OC)c(C(N)=O)n1 : what is it? inactive

---

- Tested on: HeLa
- procedure_summary: Primary qHTS to identify gynecologic anti-cancer compounds using libraries of approved drugs and bioactive compounds (AID 1345084); note: nearly all actives have a fitted effect of over 55% in size
- experimental_conditions: Gynecologic cancer cell panel viability, ATPlite luminescence, 48 h; series mostly up to 57.5 µM
Records with an inconclusive call do not appear. Activity calls are given as the source filed them. The call rests on the fitted dose curve; in most records, active means well fitted cell-killing curve with a large enough effect; inconclusive means small, poorly fitted or top-dose-only effect, or effect the other way; inactive means flat fitted curve, though single readings scatter.
Tick one outcome: active, inactive

Please state the recorded outcome for this compound: CC(=O)c1ccc2c(c1)C(O)C(C(C)(C)O)O2 (stereo not given) inactive

Kindly provide the recorded test outcome for the following compound: CCC[C@@H]1O[C@@H]2C[C@H]3[C@@H]4CCC5=CC(=O)C=C[C@]5(C)[C@H]4[C@@H](O)C[C@]3(C)[C@]2(C(=O)CO)O1 inactive

Please state the recorded outcome for this compound: CCOc1ccc(S(=O)(=O)n2c(C)nc3ccccc32)cc1 inactive

Hi, sorry to bother you, what did the test record for C[C@H](Nc1ncnc2nc[nH]c12)c1cc2ccc(F)cc2nc1-c1ccccn1 ? inactive

Tell me the assay call for COc1cc2c3c(cc4ccccc4c3c1O)NC2=O please. inactive

I would be grateful if you could indicate the recorded call for CC1(C)CC2C=C(C(=O)O)C3COC(=O)C(O)(CO)C23C1 (stereo not given) . inactive

Please state the recorded outcome for this compound: C[C@H](NC(=O)CCc1nc2ccccc2c(=O)[nH]1)c1ccccc1 inactive

# outcome recorded in this test, key = CC(=O)OC[C@@]12C(=O)C[C@@H](C)[C@]3(C[C@@H](c4ccoc4)O[C@H]3OC(C)=O)[C@H]1CCC[C@]21CO1 inactive

Answer briefly: the call reported for Clc1cc2c(NC3CCCC3)nnc(-c3ccncc3)c2cc1Cl in this assay. inactive

Could you check what this test reported for OC[C@H]1O[C@@H](OC(CCCCc2ccc(O)cc2)CCc2ccc(O)cc2)[C@H](O)[C@@H](O)[C@@H]1O (stereo not given in full) ? inactive

Outcome? CCNC(=O)Nc1ncc(-c2cc(-c3c(C)cc(OC)cc3C)nc(-c3cnccn3)n2)s1 inactive

Record lookup: outcome of this test for C=CC(C)(C)c1[nH]c2cc3c(cc2c1CC1NC(=O)C2=CCCN2C1=O)C=CC(C)(C)O3 (stereo not given) ? inactive

Please indicate how the test categorized COc1ccc(C(=O)n2c(C)c(Cc3cccc(O[C@@H](C)C(=O)O)c3)c3cc(OC(F)(F)F)ccc32)cc1 . inactive

Identify the outcome logged in this assay for the compound shown: CCN1CCN(Cc2ccc(NC(=O)c3ccc(C)c(/C=C/c4cnc5[nH]ccc5c4OC)c3)cc2C(F)(F)F)CC1 active

State the result this test recorded for C[C@]12C=C[C@@]3(CCC4[C@](C)(CO)CCC[C@@]4(C)C3CC1)C2 (stereo not given in full) . inactive

Test call, this compound: C=C1C[C@]23C[C@H]1CC[C@H]2[C@@]1(C)CCC[C@@]2(C)C(=O)O[C@@H]([C@@H]3O)[C@@H]12 inactive

Please indicate how the test categorized COc1ccc(CC2NCCc3c2[nH]c2ccc(C)cc32)cc1OC (stereo not given) . inactive

Outcome? CC1=C(CCC(C)CC(=O)O)[C@@]2(C)CCCC(C)(C)C2CC1=O (stereo not given in full) inactive

So what was the verdict on CC(C)c1cc(C(=O)N2CC[C@@H](NC(=O)C3CC3)C2)n[nH]1 in this test? inactive

Outcome? O=C(OC1C=C(CO)C2C(OC3OC(CO)C(O)C(O)C3O)OC=CC12)c1ccc(O)cc1 (stereo not given) inactive

Fill in: this test's call for CC1=C(C(=O)O[C@@H]2O[C@H](COC3OCC(O)C(O)C3O)[C@@H](O)[C@H](O)[C@H]2O)C(C)(C)CCC1 (stereo not given in full) is ___ inactive

Look up the recorded call for CO[C@H]1C[C@@H]2CC[C@@H](C)[C@@](O)(O2)C(=O)C(=O)N2CCCC[C@H]2C(=O)O[C@H]([C@H](C)C[C@@H]2CC[C@@H](OP(C)(C)=O)[C@H](OC)C2)CC(=O)[C@H](C)/C=C(\C)[C@@H](O)[C@@H](OC)C(=O)[C@H](C)C[C@H](C)/C=C/C=C/C=C/1C in this test. inactive

Check the results log: what was the call for O=C(O)c1c(O)c(-c2ccccc2)nc2ccccc12 ? inactive

Look up the recorded call for C=C1OC2CC(C(=O)O)C=CC2NC1=O (stereo not given) in this test. inactive

Lab log entry: CC(=O)O[C@@H]1C[C@@H](OC(C)=O)C(C)(C)/C=C/[C@H](C)[C@H](OC(C)=O)[C@@]2(O)C[C@H](C)[C@H](OC(=O)c3ccccc3)[C@@H]2/C=C/1C — outcome as called in the assay? inactive

What outcome does the record of this test show for COc1cc(C(=O)OC[C@@]2(O)CO[C@@H](O[C@H]3[C@H](Oc4ccc(C(=O)O)cc4OC)O[C@H](CO)[C@@H](O)[C@@H]3O)[C@@H]2O)ccc1O ? inactive

// return assay outcome for CC(O)/C=C/C1C(C)C(O[C@@H]2O[C@H](CO)[C@@H](O)[C@H](O)[C@H]2O)C(O)CC1(C)C (stereo not given in full) inactive

Which result was noted for this compound in the test: CC(=O)OCC1(O)CCC2C(COC3OC(CO)C(O)C(O)C3OC(=O)/C=C/c3ccc(O)cc3)=COC(OC(=O)CC(C)C)C21 (stereo not given) inactive

// param item: COc1cc2c(cc1OC)-c1[nH]nc(Nc3cccc(F)c3)c1C2 ; yields the recorded call active

# fetch the recorded call for CCC(C)C(=O)OC1CC(C)C=C2C=CC(C)C(CCC(O)CC(O)CC(=O)O)C21 (stereo not given) here inactive

Tell me the recorded outcome of this test for O=C(/C=C/c1ccc(O)cc1)OC1[C@H](O)CC(O)(C(=O)O)C[C@H]1O (stereo not given in full) . inactive

Look up the recorded call for C[C@H]1Oc2cc(cnc2N)-c2c(nn(C)c2C#N)CN(C)C(=O)c2ccc(F)cc21 in this test. inactive

What did the test return for CC1=C(/C=C/C(C)=C\C=C\C(C)=C/C(=O)O)C(C)(C)CCC1 ? inactive

Kindly provide the recorded test outcome for the following compound: O=C1CCC=CC1(O)C(=O)OCc1ccccc1O[C@@H]1O[C@H](CO)[C@@H](O)[C@H](O)[C@H]1O (stereo not given in full) inactive

Recorded test outcome, item CC(C)O[C@@H]1O[C@H](CO)[C@@H](O)[C@H](O)[C@H]1O inactive
